System: A549/T cells (PTX-resistant, ABCB1-overexpressing NSCLC cells)
Assay: SRB cell cytotoxicity / MDR reversal assay
Type: cell-based, human
Details: drug +1.5 μM nobiletin (N)
measurement-name: pIC50
pIC50 is defined as minus the log10 of a concentration measured in mol/L.

Worked cases, pIC50 given:
smiles-notation: CC(=O)O[C@H]1C(=O)[C@@]2(C)[C@H]([C@H](OC(=O)c3ccccc3)[C@]3(O)C[C@H](OC(=O)[C@H](O)[C@@H](NC(=O)c4ccccc4)c4ccccc4)C(C)=C1C3(C)C)[C@]1(OC(C)=O)CO[C@@H]1C[C@@H]2O
pIC50: 6.47
--
smiles-notation: COc1cccc2c1C(=O)c1c(O)c3c(c(O)c1C2=O)C[C@@](O)(C(=O)CO)C[C@@H]3O[C@H]1C[C@H](N)[C@H](O)[C@H](C)O1
pIC50: 5.57
--
smiles-notation: CC(=O)O[C@@]12CO[C@@H]1C[C@H](O)[C@@]1(C)C(=O)[C@H](O)C3=C(C)[C@@H](OC(=O)[C@H](O)[C@@H](NC(=O)OC(C)(C)C)c4ccccc4)C[C@@](O)([C@@H](OC(=O)c4ccccc4)[C@H]21)C3(C)C
pIC50: 5.57

Now for the compound whose pIC50 we want.
// "COc1cccc2c1C(=O)c1c(O)c3c(c(O)c1C2=O)C[C@@](O)(C(C)=O)C[C@@H]3O[C@H]1C[C@H](N)[C@H](O)[C@H](C)O1" : pIC50 value = 5.55

====

Tested on: A2780/T cells (PTX-resistant, ABCB1-overexpressing ovarian cancer cells)
Assay: cells
Assay type: cell-based, human
Details: A2780/T, 48 h, drug +4.5 μM nobiletin (N); read-out: IC50 ± SD
measurement-name: pIC50
pIC50 is defined as minus the log10 of a concentration measured in mol/L.

Worked cases, pIC50 given:
smiles-notation: CC(=O)O[C@@]12CO[C@@H]1C[C@H](O)[C@@]1(C)C(=O)[C@H](O)C3=C(C)[C@@H](OC(=O)[C@H](O)[C@@H](NC(=O)OC(C)(C)C)c4ccccc4)C[C@@](O)([C@@H](OC(=O)c4ccccc4)[C@H]21)C3(C)C
measurement-name: pIC50
endpoint-result: 5.95
//
smiles-notation: O=c1[nH]cc(F)c(=O)[nH]1
measurement-name: pIC50
endpoint-result: 4.58

Now for the compound whose pIC50 we want.
// "COc1cccc2c1C(=O)c1c(O)c3c(c(O)c1C2=O)C[C@@](O)(C(=O)CO)C[C@@H]3O[C@H]1C[C@H](N)[C@H](O)[C@H](C)O1" : pIC50 value = 5.95

====

System: A2780/T cells (PTX-resistant, ABCB1-overexpressing ovarian cancer cells)
Experiment: cells
Format: cell-based, human
Conditions: A2780/T, 48 h, drug +0.5 μM nobiletin (N); read-out: IC50 ± SD
measurement-name: IC50 (µM)
# value in µM; strip the unit string

// O=c1[nH]cc(F)c(=O)[nH]1 [5-Fluorouracil] : IC50 value = 132

// COc1cccc2c1C(=O)c1c(O)c3c(c(O)c1C2=O)C[C@@](O)(C(=O)CO)C[C@@H]3O[C@H]1C[C@H](N)[C@H](O)[C@H](C)O1 [Doxorubicin] : IC50 value = 3.77

// CC(=O)O[C@@]12CO[C@@H]1C[C@H](O)[C@@]1(C)C(=O)[C@H](O)C3=C(C)[C@@H](OC(=O)[C@H](O)[C@@H](NC(=O)OC(C)(C)C)c4ccccc4)C[C@@](O)([C@@H](OC(=O)c4ccccc4)[C@H]21)C3(C)C [Docetaxel] : IC50 value = 8.97
